The measured values listed here are drawn from PubChem BioAssay (NCI).

# Test system: NCI-H23 lung
# experiment_notes: NCI tumour cell line growth inhibition, 48 h
Provide the recorded GI50 for the entries that follow.

Memo: `CCOc1cc(C(C)(C)C)ccc1C1=N[C@@](C)(c2ccc(Cl)cc2)[C@@](C)(c2ccc(Cl)cc2)N1C(=O)N1CCN(CCS(C)(=O)=O)CC1` , reported GI50: 4.69 µM

Memo: `Oc1ccc(Cl)cc1-c1cc(-c2ccc(F)cc2)n[nH]1` , reported GI50: 1.61 µM

Memo: `COc1cccc(C2=C(c3cn(C)c4cccc(OC)c34)C(=O)NC2=O)c1` , reported GI50: 19.6 µM

###

# System: T-47D breast
# experiment_notes: NCI tumour cell line growth inhibition, 48 h
assay_metric: TGI (µM)
Field format: number, assumed µM, no unit text.

Memo: `ClCC#CCSc1ncnc2c1ncn2CC#CCCl` , reported TGI: 2.68

Memo: `O=C1c2ccccc2-c2c1c1ccccc1c(=O)n2-c1ccccc1` , reported TGI: 46.7

Memo: `CC1(C)[C@@H](OC(N)=O)C=C[C@]2(C=O)[C@H]3CC[C@]4(C)[C@@H](c5ccc(=O)oc5)[C@@H](Cl)C[C@]4(O)C3=CC[C@@H]12` , reported TGI: 0.0175

Memo: `O=C1c2cc([N+](=O)[O-])sc2C(=O)c2ccsc21` , reported TGI: 1.53

Memo: `CCOC(=O)c1ccccc1-c1c2ccc(=[N+](C)C)cc-2oc2cc(N(C)C)ccc12` , reported TGI: 19.8

Memo: `C#Cc1cc2c(N)c(C(=O)c3cc(OC)c(OC)c(OC)c3)[nH]c2cc1OC` , reported TGI: 54.7

Memo: OC(COc1cccc2ccccc12)CN1CCN(c2ccccc2Cl)CC1 (stereo not drawn) , reported TGI: 29.6

Memo: `CCOC(=S)SCN1C(=O)c2ccccc2S1(=O)=O` , reported TGI: 80.5

Memo: `COc1ccc(NC(=O)/C=C(C)/C=C/C=C(C)\C=C\C2=C(C)CCCC2(C)C)cc1` , reported TGI: 43.1

Memo: `O=C(Nc1cccc(C(F)(F)F)c1)c1cc(Br)cc(Br)c1O` , reported TGI: 9.69

Memo: `Cc1c(C(=O)O[C@H]2[C@@H]3[C@H](C)CC[C@H]3[C@]3(C)O[C@@]2(C2CCCCC2)C[C@H]3OC(=O)CO)ccc2ccccc12` , reported TGI: 11.6

Memo: `COc1ccc2c(c1)-c1[nH]c3ccccc3c1CC2` , reported TGI: 29.1

Memo: `c1ccc2nc(OCCN3CC3)ccc2c1` , reported TGI: 30.6

Memo: `CCOC(=O)CC[C@H](N)C(=O)N[C@H](Cc1ccc(N(CCCl)CCCl)cc1)C(=O)OCC` , reported TGI: 6.55

###

# Test system: OVCAR-3 ovarian
# experiment_notes: NCI tumour cell line growth inhibition, 48 h; in the data active = GI50 below about 0.43 µM; inactive = the rest
Select the correct class. Options are yes for active, no for inactive and nothing else.

QUERY: Check the results log: what was the call for `Cc1sc2ncn(Cc3ccc(Cl)c(Cl)c3)c(=O)c2c1C` ?
RESULT: no

QUERY: Check the results log: what was the call for `CCCCCCNC(=O)Oc1ccc(/C(=C(\C)c2ccccc2)c2ccc(OCCN(CC)CC)cc2)cc1` ?
RESULT: no

QUERY: Check the results log: what was the call for CO[C@H](C(=O)O)[C@@H]1Cc2cc3cc(OC4CC(OC5CC(O)C(O)C(C)O5)C(O)C(C)O4)c(C)c(O)c3c(O)c2C(=O)[C@H]1OC1CC(OC2CC(OC3CC(C)(O)C(O)C(C)O3)C(O)C(C)O2)C(O)C(C)O1 (stereo partly specified) ?
RESULT: yes

QUERY: Check the results log: what was the call for `COc1cc(-c2nn(-c3ccc(NC(=O)c4cc(Cl)cc(Cl)c4)cc3)cc2-c2ccncc2)ccc1Cl` ?
RESULT: no

QUERY: Check the results log: what was the call for COc1cc([C@@H]2c3cc4c(cc3C(OC3O[C@@H]5COC(C)O[C@H]5[C@H](O)[C@H]3O)C3COC(=O)[C@@H]32)OCO4)cc(OC)c1O (stereo partly specified) ?
RESULT: no

QUERY: Check the results log: what was the call for `COc1ccc2c(c1)CC[C@@H]1[C@@H]2CC[C@]2(C)C=C(/C=C/C(=O)c3ccccc3)C[C@@H]12` ?
RESULT: no

###

# Tested on: OVCAR-3 ovarian
# experiment_notes: NCI tumour cell line growth inhibition, 48 h
assay_metric: TGI

Memo: `COc1cc([C@@H]2c3cc4c(cc3C[C@H]3COC(=O)[C@@H]32)OCO4)cc2c1OCO2` , reported TGI: < 0.01 µM

Memo: `C#CCN(Cc1nc2cc(C(F)(F)F)ccc2nc1-c1ccccc1)c1ccc(F)c(F)c1` , reported TGI: 61.8 µM

Memo: `C1C[OH+]CC[OH+]CC[OH+]CC[OH+]CC[OH+]CC[OH+]1.[Cl-].[Nb+5]` , reported TGI: > 100 µM

Memo: `NCP(=O)(O)OCC(=O)O` , reported TGI: > 100 µM

Memo: `CCOP(=O)(OCC)C(C)(C)OC(=O)NC#N` , reported TGI: > 100 µM

Memo: O=C1NC2(C=Cc3c(ccc4ccccc34)O2)Oc2ccccc21 (stereo not given) , reported TGI: 59.8 µM

Memo: `O=S(=O)(/N=C(\NO)Nc1ccc(Cl)cc1)c1ccc(-c2ccccn2)s1` , reported TGI: 40.2 µM

Memo: `CC1=C(C(=O)Nc2ccccc2)C(c2ccc(C(C)C)cc2)C(C(=O)Nc2ccccc2)=C(C)N1` , reported TGI: 56.3 µM

Memo: CC1(C)c2ccccc2C(O)C12CCC(=O)CC2 (stereo not given) , reported TGI: > 100 µM

Memo: `Oc1c(CN2CCOCC2)cc(COCc2ccccc2)c2cccnc12` , reported TGI: > 100 µM

###

# System: UO-31 renal
# experiment_notes: NCI tumour cell line growth inhibition, 48 h
assay_metric: TGI

Memo: CC(=O)O[C@H]1CC[C@H]2[C@@H]3CCC(C(C)=O)[C@H](C(=O)O)[C@H]3CC[C@]12C (stereo not given in full) , reported TGI: > 100 µM

Memo: `COc1ccccc1NS(=O)(=O)c1ccc2ncn(NS(=O)(=O)c3ccc(Cl)cc3)c(=O)c2c1` , reported TGI: > 100 µM

Memo: `C[N+](C)(N)c1nc(N)c(C#N)c(C#N)c1C#N` , reported TGI: > 10 µM

Memo: C[N+](C)(C)CC1CCCC/C1=N\O (stereo not given) , reported TGI: > 100 µM

Memo: `Cc1cc(C)c(N=Nc2c(O)c(S(=O)(=O)O)cc3cc(S(=O)(=O)O)ccc23)cc1C` , reported TGI: > 100 µM

Memo: CC(C)(C)OC(=O)N1N=NC2C3OC(CC3=O)C21 (stereo not given) , reported TGI: > 100 µM

Memo: `O=[N+]([O-])c1cc(Cl)ccc1S(=O)(=O)N1CCCc2cc(Cl)ccc21` , reported TGI: > 100 µM

Memo: `COc1ccccc1NCC(=O)Nn1c(C)nc2ccc(S(=O)(=O)Nc3ccccc3OC)cc2c1=O` , reported TGI: > 100 µM

Memo: `CCOC(=O)NC(=O)c1c[nH]c(=O)[nH]c1=O` , reported TGI: > 100 µM

Memo: `NS(=O)(=O)c1ccc(NC(=O)COC(=O)c2cccc3c(=O)c4ccccc4[nH]c23)cc1` , reported TGI: > 87 µM

Memo: `NS(=O)(=O)c1ccc(NC(=O)Nc2ccccc2F)cc1` , reported TGI: > 100 µM

Memo: `Cc1nnc(-c2ccc(-c3nc4ccccc4o3)cc2)o1` , reported TGI: > 100 µM

Memo: `COc1ccc(/C=N/N=C(\[O-])c2ccncc2)cc1F.COc1ccc(/C=N\N=C(/[O-])c2ccncc2)cc1F.[Cu+2]` , reported TGI: > 100 µM

Memo: `O=C(Nc1ccc(I)cc1F)c1cc(I)ccc1O` , reported TGI: 2.22 µM

Memo: O=P1(c2ccccc2)C2=CCC=CC2C(c2ccccc2)N1Cc1ccccc1 (stereo not given) , reported TGI: 25.8 µM

Memo: Nc1c(C(=O)Nc2cccc(Br)c2)sc2nc3c(cc12)C(O)CCC3 (stereo not given) , reported TGI: 40.3 µM

Memo: `CCCn1c(N)c(C(=O)CNc2ccc(I)cc2)c(=O)[nH]c1=O` , reported TGI: > 100 µM

Memo: `O=S(=O)(/N=C(\NO)Nc1ccc(Cl)cc1)c1ccc(-c2ccccn2)s1` , reported TGI: > 100 µM

Memo: `O=C(Oc1cccc(Cl)c1)c1cc2cc(CCl)ccc2oc1=O` , reported TGI: > 100 µM

Memo: N#Cc1c2c(c(-c3cccs3)n(C3OC(CO)C(O)C(O)C3O)c1=S)CCc1ccccc1-2 (stereo not given) , reported TGI: > 100 µM

Memo: `CCOC(=O)CC[C@H](N)C(=O)N[C@H](Cc1ccc(N(CCCl)CCCl)cc1)C(=O)OCC` , reported TGI: 0.281 µM

Memo: `O=C1N[C@@H](COc2ccc(C=Nc3ccc(CCc4ccc(N=Cc5ccc(OC[C@@H]6COC(=O)N6)cc5)cc4)cc3)cc2)CO1` , reported TGI: > 100 µM

Memo: `CN1CCN(CCOc2ccc(-c3cnc4c(-c5ccc(F)cc5)cnn4c3)cc2)CC1` , reported TGI: 2.93 µM

Memo: NC(=O)N/N=C(/c1nc2ccc([N+](=O)[O-])cc2[nH]c1=O)C(O)c1ccco1 (stereo not given) , reported TGI: > 100 µM

Memo: `Cc1sc2nc3n(c(=O)c2c1C)N=C(c1ccc([N+](=O)[O-])cc1)CS3` , reported TGI: > 100 µM

Memo: `CCOC(=O)/N=c1/nc(N(C)C)ss1` , reported TGI: > 100 µM

Memo: COC(=O)C(Cc1nc2ccccc2[nH]c1=O)C(=O)C(=O)Nc1cc(C(F)(F)F)ccc1Cl (stereo not given) , reported TGI: 28.9 µM

Memo: `Cn1ncc(-c2ccc3c(=O)[nH]nc(CN)c3c2)c1-c1c(F)cc2ccccc2c1C#N` , reported TGI: 20.6 µM

Memo: CC1(C)C2CCC(N)(C2)C1O (stereo not given) , reported TGI: > 100 µM

Memo: `Cc1nc2c(=O)[nH]c3ccc(Cl)cc3c2o1` , reported TGI: > 100 µM
